All values here come from patent US10865188B2.

- TEST DESCRIPTION: Guinea pig PK after transtympanic delivery (perilymph and cochlea, LC/MS/MS)
- Format: in vivo
- MEASUREMENT CONDITIONS: male, Hartley, perilymph, other: transtympanic, 30 μL, Crystalline form (Example 5(c)), 30 μL transtympanic, Day 7, LLOQ = 0.08 μM, read-out: Perilymph Average concentration
PROPERTY NAME: concentration at 7 day (µM)
Record the value in µM, omitting the unit from your answer.

Query :: Provide one value: measured concentration at 7 day of CN1C(=O)[C@@H](NC(=O)[C@](C)(F)C(=O)NCC(F)(F)C(F)(F)F)c2ccccc2-c2ccccc21
Result :: 26

---

- TEST DESCRIPTION: Guinea pig PK after transtympanic delivery (perilymph and cochlea, LC/MS/MS)
- Type: in vivo
- MEASUREMENT CONDITIONS: male, Hartley, perilymph, other: transtympanic, 30 μL, Amorphous form (Example 5(d)), 30 μL transtympanic, Day 14, LLOQ = 0.08 μM, read-out: perilymph Average concentration
PROPERTY NAME: concentration at 14 day (nM)
Record the value in nM, omitting the unit from your answer.

Query :: Provide one value: measured concentration at 14 day of CN1C(=O)[C@@H](NC(=O)[C@](C)(F)C(=O)NCC(F)(F)C(F)(F)F)c2ccccc2-c2ccccc21
Result :: 0

---

- TEST DESCRIPTION: Guinea pig PK after transtympanic delivery (perilymph and cochlea, LC/MS/MS)
- Format: in vivo
- MEASUREMENT CONDITIONS: male, Hartley, perilymph, other: transtympanic, 30 μL, Crystalline form (Example 5(c)), 30 μL transtympanic, Day 56, LLOQ = 0.08 μM, read-out: Perilymph Average concentration
PROPERTY NAME: concentration at 56 day (nM)
Record the value in nM, omitting the unit from your answer.

Query :: Provide one value: measured concentration at 56 day of CN1C(=O)[C@@H](NC(=O)[C@](C)(F)C(=O)NCC(F)(F)C(F)(F)F)c2ccccc2-c2ccccc21
Result :: 0

---

- TEST DESCRIPTION: Guinea pig PK after transtympanic delivery (perilymph and cochlea, LC/MS/MS)
- Type: in vivo
- MEASUREMENT CONDITIONS: male, Hartley, perilymph, other: transtympanic, 30 μL, Crystalline form (Example 5(a)), 30 μL transtympanic, Day 1, LLOQ = 0.08 μM, read-out: Perilymph Average concentration
PROPERTY NAME: concentration at 1 day (µM)
Record the value in µM, omitting the unit from your answer.

Query :: Provide one value: measured concentration at 1 day of C[C@H](OC(=O)NCC(F)(F)C(F)(F)F)C(=O)N[C@@H]1C(=O)Nc2ccccc2-c2ccccc21
Result :: 395

---

- TEST DESCRIPTION: Guinea pig PK after transtympanic delivery (perilymph and cochlea, LC/MS/MS)
- Assay type: in vivo
- MEASUREMENT CONDITIONS: male, Hartley, cochlea, other: transtympanic, 30 μL, Crystalline form (Example 5(c)), 30 μL transtympanic, Day 28, LLOQ = 0.08 μM, read-out: Cochlea Average concentration
PROPERTY NAME: concentration at 28 day (µM)
Record the value in µM, omitting the unit from your answer.

Query :: Provide one value: measured concentration at 28 day of CN1C(=O)[C@@H](NC(=O)[C@](C)(F)C(=O)NCC(F)(F)C(F)(F)F)c2ccccc2-c2ccccc21
Result :: 7.6

---

- TEST DESCRIPTION: Guinea pig PK after transtympanic delivery (perilymph and cochlea, LC/MS/MS)
- Format: in vivo
- MEASUREMENT CONDITIONS: male, Hartley, cochlea, other: transtympanic, 30 μL, Crystalline form (Example 5(c)), 30 μL transtympanic, Day 1, LLOQ = 0.08 μM, read-out: Cochlea Average concentration
PROPERTY NAME: concentration at 1 day (µM)
Record the value in µM, omitting the unit from your answer.

Query :: Provide one value: measured concentration at 1 day of CN1C(=O)[C@@H](NC(=O)[C@](C)(F)C(=O)NCC(F)(F)C(F)(F)F)c2ccccc2-c2ccccc21
Result :: 5280

---

- TEST DESCRIPTION: Guinea pig PK after transtympanic delivery (perilymph and cochlea, LC/MS/MS)
- Assay type: in vivo
- MEASUREMENT CONDITIONS: male, Hartley, perilymph, other: transtympanic, 30 μL, Crystalline form (Example 5(a)), 30 μL transtympanic, Day 21, LLOQ = 0.08 μM, read-out: Perilymph Average concentration
PROPERTY NAME: concentration at 21 day
Note: a bare number is incomplete; add the unit.

Query :: Provide one value: measured concentration at 21 day of C[C@H](OC(=O)NCC(F)(F)C(F)(F)F)C(=O)N[C@@H]1C(=O)Nc2ccccc2-c2ccccc21 [Compound I]
Result :: 18.2 µM

---

- TEST DESCRIPTION: Guinea pig PK after transtympanic delivery (perilymph and cochlea, LC/MS/MS)
- Type: in vivo
- MEASUREMENT CONDITIONS: male, Hartley, cochlea, other: transtympanic, 30 μL, Crystalline form (Example 5(a)), 30 μL transtympanic, Day 1, LLOQ = 0.08 μM, read-out: Cochlea Average concentration
PROPERTY NAME: concentration at 1 day (µM)
Record the value in µM, omitting the unit from your answer.

Query :: Provide one value: measured concentration at 1 day of C[C@H](OC(=O)NCC(F)(F)C(F)(F)F)C(=O)N[C@@H]1C(=O)Nc2ccccc2-c2ccccc21 [Compound I]
Result :: 69

---

- TEST DESCRIPTION: Guinea pig PK after transtympanic delivery (perilymph and cochlea, LC/MS/MS)
- Format: in vivo
- MEASUREMENT CONDITIONS: male, Hartley, perilymph, other: transtympanic, 30 μL, Crystalline form (Example 5(a)), 30 μL transtympanic, Day 3, LLOQ = 0.08 μM, read-out: Perilymph Average concentration
PROPERTY NAME: concentration at 3 day (µM)
Record the value in µM, omitting the unit from your answer.

Query :: Provide one value: measured concentration at 3 day of C[C@H](OC(=O)NCC(F)(F)C(F)(F)F)C(=O)N[C@@H]1C(=O)Nc2ccccc2-c2ccccc21
Result :: 568

---

- TEST DESCRIPTION: Guinea pig PK after transtympanic delivery (perilymph and cochlea, LC/MS/MS)
- Format: in vivo
- MEASUREMENT CONDITIONS: male, Hartley, perilymph, other: transtympanic, 30 μL, Amorphous form (Example 5(d)), 30 μL transtympanic, Day 7, LLOQ = 0.08 μM, read-out: perilymph Average concentration
- Description: Male Hartley guinea pigs (300-350 g) were anesthetized with ketamine and xylazine. Thirty microliters of an aqueous pharmaceutical composition of the instant embodiments was delivered transtympanically to deposit the drug to the round window membrane. […] At various timepoints after administration, the animals were euthanized by CO2 inhalation. […] All tissues collected were analyzed using LC/MS/MS for test compound concentration as follows. […] The supernatants were analyzed using LC-MS/MS. […]
PROPERTY NAME: concentration at 7 day (µM)
Record the value in µM, omitting the unit from your answer.

Query :: Provide one value: measured concentration at 7 day of CN1C(=O)[C@@H](NC(=O)[C@](C)(F)C(=O)NCC(F)(F)C(F)(F)F)c2ccccc2-c2ccccc21 [Compound II]
Result :: 178

---

- TEST DESCRIPTION: Guinea pig PK after transtympanic delivery (perilymph and cochlea, LC/MS/MS)
- Type: in vivo
- MEASUREMENT CONDITIONS: male, Hartley, cochlea, other: transtympanic, 30 μL, Amorphous form (Example 5(d)), 30 μL transtympanic, Day 1, LLOQ = 0.08 μM, read-out: Cochlea Average concentration
PROPERTY NAME: concentration at 1 day (µM)
Record the value in µM, omitting the unit from your answer.

Query :: Provide one value: measured concentration at 1 day of CN1C(=O)[C@@H](NC(=O)[C@](C)(F)C(=O)NCC(F)(F)C(F)(F)F)c2ccccc2-c2ccccc21 [Compound II]
Result :: 829

---

- TEST DESCRIPTION: Guinea pig PK after transtympanic delivery (perilymph and cochlea, LC/MS/MS)
- Format: in vivo
- MEASUREMENT CONDITIONS: male, Hartley, perilymph, other: transtympanic, 30 μL, Amorphous form (Example 5(b)), 30 μL transtympanic, Day 14, LLOQ = 0.08 μM, read-out: perilymph Average concentration
PROPERTY NAME: concentration at 14 day (nM)
Record the value in nM, omitting the unit from your answer.

Query :: Provide one value: measured concentration at 14 day of C[C@H](OC(=O)NCC(F)(F)C(F)(F)F)C(=O)N[C@@H]1C(=O)Nc2ccccc2-c2ccccc21
Result :: 0

---

- TEST DESCRIPTION: Guinea pig PK after transtympanic delivery (perilymph and cochlea, LC/MS/MS)
- Type: in vivo
- MEASUREMENT CONDITIONS: male, Hartley, perilymph, other: transtympanic, 30 μL, Amorphous form (Example 5(b)), 30 μL transtympanic, Day 7, LLOQ = 0.08 μM, read-out: perilymph Average concentration
PROPERTY NAME: concentration at 7 day (µM)
Record the value in µM, omitting the unit from your answer.

Query :: Provide one value: measured concentration at 7 day of C[C@H](OC(=O)NCC(F)(F)C(F)(F)F)C(=O)N[C@@H]1C(=O)Nc2ccccc2-c2ccccc21
Result :: 14
